- target: h-GABA-A α5β3γ2 (Homo sapiens, UniProt P18507+P31644)
- Sequence (P31644 32-462): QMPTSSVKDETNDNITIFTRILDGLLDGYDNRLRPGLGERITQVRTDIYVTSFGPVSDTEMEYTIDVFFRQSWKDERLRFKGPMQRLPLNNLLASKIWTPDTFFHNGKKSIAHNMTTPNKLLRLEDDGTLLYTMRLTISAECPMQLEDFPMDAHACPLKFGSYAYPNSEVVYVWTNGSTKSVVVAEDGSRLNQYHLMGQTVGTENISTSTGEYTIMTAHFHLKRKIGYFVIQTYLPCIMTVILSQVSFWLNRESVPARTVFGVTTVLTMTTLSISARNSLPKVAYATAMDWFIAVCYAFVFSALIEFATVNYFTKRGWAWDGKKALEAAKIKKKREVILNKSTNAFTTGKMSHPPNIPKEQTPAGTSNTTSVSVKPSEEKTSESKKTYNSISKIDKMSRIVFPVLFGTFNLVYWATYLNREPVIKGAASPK
- Sequence (P28472 26-473 partner): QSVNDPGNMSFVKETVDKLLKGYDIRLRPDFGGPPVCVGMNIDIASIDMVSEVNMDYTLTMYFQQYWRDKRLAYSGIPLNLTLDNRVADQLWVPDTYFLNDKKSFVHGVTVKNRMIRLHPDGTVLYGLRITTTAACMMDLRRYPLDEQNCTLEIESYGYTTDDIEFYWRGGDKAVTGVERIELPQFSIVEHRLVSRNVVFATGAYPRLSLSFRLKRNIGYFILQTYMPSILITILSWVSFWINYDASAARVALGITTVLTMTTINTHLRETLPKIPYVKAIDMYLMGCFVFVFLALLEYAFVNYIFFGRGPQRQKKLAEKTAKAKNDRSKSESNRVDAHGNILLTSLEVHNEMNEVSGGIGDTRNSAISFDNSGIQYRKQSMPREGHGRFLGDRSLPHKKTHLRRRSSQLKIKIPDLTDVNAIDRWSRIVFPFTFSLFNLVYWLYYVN
- Sequence (P18507 40-475): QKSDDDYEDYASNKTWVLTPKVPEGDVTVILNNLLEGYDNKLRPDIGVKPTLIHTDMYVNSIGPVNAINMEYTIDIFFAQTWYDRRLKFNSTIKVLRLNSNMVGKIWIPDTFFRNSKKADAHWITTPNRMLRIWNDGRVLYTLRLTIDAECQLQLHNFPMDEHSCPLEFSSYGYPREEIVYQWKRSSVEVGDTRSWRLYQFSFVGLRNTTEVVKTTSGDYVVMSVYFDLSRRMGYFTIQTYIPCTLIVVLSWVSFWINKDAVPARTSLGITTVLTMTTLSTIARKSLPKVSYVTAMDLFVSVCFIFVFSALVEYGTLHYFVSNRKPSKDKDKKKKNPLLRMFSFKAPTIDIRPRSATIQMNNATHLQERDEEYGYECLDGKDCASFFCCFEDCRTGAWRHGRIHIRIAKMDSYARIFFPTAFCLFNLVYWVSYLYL
- protocol.details: Two-electrode voltage clamp electrophysiology in Xenopus laevis oocytes expressing GABAA receptors, modulation of GABA EC20 current
- Assay type: cell-based
- Parameters: host or cells: Xenopus laevis oocytes micro-injected with RNA transcripts of the subunits
- assay.setup: % modulation of GABA EC20 = 100*(Fold increase-1); Table 1
readout: Efficacy (GABA) % (%)
Your answer should be a plain number; it is taken to be in %.

For this compound ( "Cc1ccc(-c2noc(C)c2Cn2ncc(-c3ccccc3)cc2=O)cn1" ), measured Efficacy (GABA) % is 107

Noted for "CNc1cc(-c2cnn(Cc3c(-c4ccc(C)nc4)noc3C)c(=O)c2)ccn1" : its Efficacy (GABA) % reads 96

# compound "Cc1ccc(-c2noc(C)c2Cn2ncc(N3CCC4(CC3)COC4)cc2=O)cn1" ; its Efficacy (GABA) % = 107

Notebook: "Cc1ncc(-c2noc(C)c2Cn2ncc(N3C[C@@H](C)O[C@@H](C)C3)cc2=O)cc1F" , Efficacy (GABA) % read as 253

// recorded Efficacy (GABA) % for Cc1ccc(-c2noc(C)c2Cn2ncc(N3CC4(CCC(C)CO4)C3)cc2=O)nn1 (single isomer, unassigned) : 103

Reported Efficacy (GABA) % of "COc1ccc(-c2cnn(Cc3c(-c4ccc(C)nc4)noc3C)c(=O)c2)cc1" : 71

Given item "CCc1cc(-c2cnn(Cc3c(-c4ccc(C)nc4)noc3C)c(=O)c2)ccn1" , the value recorded as its Efficacy (GABA) % is 98

Entry "Cc1ccc(-c2noc(C)c2Cn2ncc(N3CC(OC(C)C)C3)cc2=O)cn1" , Efficacy (GABA) % reported as 101

The compound listed as "Cc1ccc(-c2noc(C)c2Cn2ncc(N3CC(Oc4ccccn4)C3)cc2=O)cn1" shows Efficacy (GABA) % equal to 148

So for "Cc1ccc(-c2noc(C)c2Cn2ncc(N3CC4(CCCO4)C3)cc2=O)cn1" , the logged Efficacy (GABA) % turned out to be 115
